Values were extracted from the supplement of paper PMC12764529.

Entries and their folding stability dG unfold values follow.
# MEASUREMENT PROTOCOL: folding stability dG unfold (combined trypsin and chymotrypsin); higher = more stable

Look over these answered cases.
POLYMER SEQUENCE: SGMPPVSFANLELVAVSPDGTVTVVRAELTGPDGERYVWTGSLSELLKRLEEEDLTLDNFKEGGLIVAVDSA [r9_1078_TrMRF]
MEASURED RESULT: 3.44 kcal/mol

POLYMER SEQUENCE: SAGGWRLRIHIENPGNGRWITHTFPMPPGNIEKIADDMLEMLPGWKITGVEIVYEPGWITITARVKPKSAGG [r13_196_TrROS]
MEASURED RESULT: 2.74 kcal/mol

(Q) Fill in the blank: the reported folding stability dG unfold of SAGDKIEIKFNIPMPEGPIRIMVWDNGKREEKDIPPGEEVTIKIDLPPGDDYRIAIYYPDGNMHEFPINSAG [r5_187_TrROS] is ____.
(A) 2.47 kcal/mol

(Q) Fill in the blank: the reported folding stability dG unfold of SAGGSAGGSAGKITIHMDPEGNYMVKTPGNERQFDSPEDADELADEFLLNGLPIEIHPHPSAGGSAGGSAGG [r17_35_TrROS] is ____.
(A) < -1 kcal/mol

(Q) Fill in the blank: the reported folding stability dG unfold of SAGGSAGGSAPKLKFETEPYPNGGYYHKVKIDLEGPKIPITIPVNNNQPMPIEDFAKHILKKSAGGSAGGSA [r18_111_TrROS] is ____.
(A) < -1 kcal/mol

(Q) Fill in the blank: the reported folding stability dG unfold of SAGGSAGGSAQPIPIKIRIRMRDDGKPQTFTFEVPVKPGATESTILDKIMKKFPGFRHIEIESAGGSAGGSA [r18_195_TrROS] is ____.
(A) 1.06 kcal/mol

(Q) Fill in the blank: the reported folding stability dG unfold of SAGGSAGGSAGGSKLKEGEKYKVYFKKTKKELEVETLEQLKALEKAGKKVEIVKIEKVPSAGGSAGGSAGGS [r4_214_TrROS_Hall] is ____.
(A) -0.269 kcal/mol

---

# MEASUREMENT PROTOCOL: folding stability dG unfold from chymotrypsin proteolysis; higher = more stable
Hi, to clarify the labels: 1.0 covers folding stability dG unfold from 2 kcal/mol upward, 0.0 covers anything below 2 kcal/mol.

Worked examples follow.
POLYMER SEQUENCE: SKKPDYVILIEIEVEKNENGEKTIKKKIIIYDKNGKKKLIAEEEITIEVNGIKIKIKIKIFPKGASLEELSA [r9_1113_TrROS_Hall]
CLASSIFICATION: 1.0

POLYMER SEQUENCE: SAMELSPEERAELLIEAVRRKLEEARKKGIPNKKVKVTIVLSEEEREALAKRIEEELKEEGYEVEIVPESAG [r14_908_TrROS_Hall]
CLASSIFICATION: 1.0

POLYMER SEQUENCE: SAGGSAGGSAGHRSVMVTVDDIAKENGIKIPPGSYLMVTVEGNKVKDIMIQPMKPKPEDPSAGGSAGGSAGG [r11_616_TrROS]
CLASSIFICATION: 0.0

POLYMER SEQUENCE: SAGGSAGGSAVPPDRPFTLPVLTLVRDPETGELYLARAEVTFLAPDPVITAARLEVFPPDADFSAGGSAGGS [r12_868_TrMRF]
CLASSIFICATION: 0.0

POLYMER SEQUENCE: SAGGSAGGSAGGPTVTLTLEVPVEDAEELAKALEDAGKARVTKVERNEDGFLRITVEFEDSAGGSAGGSAGG [r7_589_TrROS_Hall]
CLASSIFICATION: 0.0

POLYMER SEQUENCE: SAGGSAGGSAGGGLEEIKEAIKKLPENVKEITIKLKDGSTIKIRVEKDKDGKYKITIEPSAGGSAGGSAGGS [r10_1017_TrROS_Hall]
CLASSIFICATION: 1.0

Kindly consider the entry below.
(Q) Reported folding stability dG unfold reaches at least 2 kcal/mol for SAGGLNINLPPGQEIELTLQVTHLFNGGNGDFGSMTHTYEIPIKIKPIPPVPKPEVERDPDGNYKVEDSAGG [r13_401_TrROS] ?
(A) 0.0
